# Test system: 695427-040-R-J1-PDC complex spheroid viability
# MEASUREMENT_NOTES: Anticancer human tumor 695427-040-R-J1-PDC patient-derived colon adenocarcinoma cell line growth inhibition [POLQ]
# DETAILS: second compound 0.1 µM; first compound 1 µM; stronger effect = lower value
Exercise: state measured viability, T/C for each of the compounds provided.
State just the number; it will be interpreted in %.

[in] Sample CC1COCCN1c1cc(C2(S(C)(=N)=O)CC2)nc(-c2ccnc3[nH]ccc23)n1 (stereo not drawn) + Nc1ccc(C#CCN(C(=O)Cc2ncc(C(F)(F)F)cc2C(F)(F)F)c2ccc(F)cc2)nn1 — what was its viability, T/C?
[out] 98.1

[in] Sample COc1ccc([C@@H](O)c2cc(-c3ncnc4cc(N5CCOCC5)ccc34)c(F)cc2Cl)nn1 + Cc1cccc(N(C)C(=O)C2C(O)CCN2c2nc(C)cc(C(F)(F)F)c2C#N)c1 — what was its viability, T/C?
[out] 91.8

[in] Sample O=c1[nH]cc(F)c(=O)[nH]1 + COC1C(OC(N)=O)C(O)C(Oc2ccc3c(O)c(NC(=O)c4ccc(O)c(CC=C(C)C)c4)c(=O)oc3c2C)OC1(C)C — what was its viability, T/C?
[out] 106

====

# System: 695427-040-R-J1-PDC complex spheroid viability
# MEASUREMENT_NOTES: Anticancer human tumor 695427-040-R-J1-PDC cell line growth inhibition [POLQ];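 also: spheroids exposed to compounds for seven days; 100% = DMSO vehicle control viability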
# DETAILS: second compound 10 µM; first compound 1 µM; stronger effect = lower value
Checkbox rule: viability, T/C lower than 90% = Condition met; viability, T/C not lower than 90% = Condition not met.

[in] Strictly below 90%: is that where viability, T/C of O=C(c1cc(Cc2n[nH]c(=O)c3ccccc23)ccc1F)N1CCN(C(=O)C2CC2)CC1 + Nc1ccc(C#CCN(C(=O)Cc2ncc(C(F)(F)F)cc2C(F)(F)F)c2ccc(F)cc2)nn1 sits?
[out] Condition not met

[in] Strictly below 90%: is that where viability, T/C of CNCc1ccc(-c2[nH]c3cc(F)cc4c3c2CCNC4=O)cc1 + Cc1cccc(N(C)C(=O)C2C(O)CCN2c2nc(C)cc(C(F)(F)F)c2C#N)c1 sits?
[out] Condition not met

[in] Strictly below 90%: is that where viability, T/C of C=CC(=O)N1CCN(c2nc(=O)n(-c3c(C)ccnc3C(C)C)c3nc(-c4c(O)cccc4F)c(F)cc23)C(C)C1 (stereo not given) + Nc1ccc(C#CCN(C(=O)Cc2ncc(C(F)(F)F)cc2C(F)(F)F)c2ccc(F)cc2)nn1 sits?
[out] Condition not met

[in] Strictly below 90%: is that where viability, T/C of COc1cccc2c1C(=O)c1c(O)c3c(c(O)c1C2=O)CC(O)(C(=O)CO)CC3OC1CC(N)C(O)C(C)O1 (stereo not given) + COC1C(OC(N)=O)C(O)C(Oc2ccc3c(O)c(NC(=O)c4ccc(O)c(CC=C(C)C)c4)c(=O)oc3c2C)OC1(C)C sits?
[out] Condition met

====

# Tested on: 695427-040-R-J1-PDC complex spheroid viability
# MEASUREMENT_NOTES: Anticancer human tumor 695427-040-R-J1-PDC cell line growth inhibition [POLQ];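 also: spheroids exposed to compounds for seven days; 100% = DMSO vehicle control viability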
# DETAILS: second compound 3.16 µM; first compound 3.16 µM; stronger effect = lower value
MEASURED_ENDPOINT: viability, T/C (%)
State just the number; it will be interpreted in %.

[in] Sample CC1COCCN1c1cc(C2(S(C)(=N)=O)CC2)nc(-c2ccnc3[nH]ccc23)n1 (stereo unspecified) + Cc1cccc(N(C)C(=O)C2C(O)CCN2c2nc(C)cc(C(F)(F)F)c2C#N)c1 — what was its viability, T/C?
[out] 97

[in] Sample O=c1[nH]cc(F)c(=O)[nH]1 + Nc1ccc(C#CCN(C(=O)Cc2ncc(C(F)(F)F)cc2C(F)(F)F)c2ccc(F)cc2)nn1 — what was its viability, T/C?
[out] 103

[in] Sample COc1ccc([C@@H](O)c2cc(-c3ncnc4cc(N5CCOCC5)ccc34)c(F)cc2Cl)nn1 + Nc1ccc(C#CCN(C(=O)Cc2ncc(C(F)(F)F)cc2C(F)(F)F)c2ccc(F)cc2)nn1 — what was its viability, T/C?
[out] 78.3

[in] Sample C#Cc1c(F)ccc2cc(O)cc(-c3ncc4c(N5CC6CCC(C5)N6)nc(OCC56CCCN5CC(F)C6)nc4c3F)c12 (stereo unspecified) + Nc1ccc(C#CCN(C(=O)Cc2ncc(C(F)(F)F)cc2C(F)(F)F)c2ccc(F)cc2)nn1 — what was its viability, T/C?
[out] 96

[in] Sample COc1cc2cc(C(=O)CCC(=O)O)sc2cc1OC + Nc1ccc(C#CCN(C(=O)Cc2ncc(C(F)(F)F)cc2C(F)(F)F)c2ccc(F)cc2)nn1 — what was its viability, T/C?
[out] 106

[in] Sample C=CC(=O)N1CCN(c2nc(=O)n(-c3c(C)ccnc3C(C)C)c3nc(-c4c(O)cccc4F)c(F)cc23)C(C)C1 (stereo unspecified) + Nc1ccc(C#CCN(C(=O)Cc2ncc(C(F)(F)F)cc2C(F)(F)F)c2ccc(F)cc2)nn1 — what was its viability, T/C?
[out] 107

[in] Sample COc1cc2cc(C(=O)CCC(=O)O)sc2cc1OC + Cc1cccc(N(C)C(=O)C2C(O)CCN2c2nc(C)cc(C(F)(F)F)c2C#N)c1 — what was its viability, T/C?
[out] 97.9

[in] Sample CNCc1ccc(-c2[nH]c3cc(F)cc4c3c2CCNC4=O)cc1 + Cc1cccc(N(C)C(=O)C2C(O)CCN2c2nc(C)cc(C(F)(F)F)c2C#N)c1 — what was its viability, T/C?
[out] 108

[in] Sample Nc1ccn(C2OC(CO)C(O)C2(F)F)c(=O)n1 (stereo unspecified) + COC1C(OC(N)=O)C(O)C(Oc2ccc3c(O)c(NC(=O)c4ccc(O)c(CC=C(C)C)c4)c(=O)oc3c2C)OC1(C)C — what was its viability, T/C?
[out] 63.2

[in] Sample COc1ccc([C@@H](O)c2cc(-c3ncnc4cc(N5CCOCC5)ccc34)c(F)cc2Cl)nn1 + Cc1cccc(N(C)C(=O)C2C(O)CCN2c2nc(C)cc(C(F)(F)F)c2C#N)c1 — what was its viability, T/C?
[out] 74.5

[in] Sample CCCS(=O)(=O)Nc1ccc(F)c(C(=O)c2c[nH]c3ncc(-c4ccc(Cl)cc4)cc23)c1F + Cc1cccc(N(C)C(=O)C2C(O)CCN2c2nc(C)cc(C(F)(F)F)c2C#N)c1 — what was its viability, T/C?
[out] 112

Source listed as PubChem BioAssay AID1963840.
